Provide the recorded EC50 for the entries that follow.
- Test system: HL-60
- protocol: Cytotoxicity against human HL60 cells assessed as NADH level after 72 hrs by MTS cells
- Type: functional, cell-based
- run.parameters: HL-60, 72 h
Kindly answer with a numeric value in nM, unit omitted.

I have this compound here, CC(C)N(CCn1c(-c2cccc(/C=C/C(=O)NO)c2)nc2ccccc21)C(C)C , and I need its recorded EC50.
5000

I have this compound here, CCN1CCC[C@@H](n2c(-c3cccc(/C=C/C(=O)NO)c3)nc(C)c2C)C1 , and I need its recorded EC50.
40

I have this compound here, CCN1CCC[C@@H](n2c(-c3cccc(/C=C/C(=O)NO)c3)nc3ccccc32)C1 , and I need its recorded EC50.
30

I have this compound here, O=C(/C=C/c1cccc(-c2nc3ccccc3[nH]2)c1)NO , and I need its recorded EC50.
3100

I have this compound here, Cc1c(-c2ccccc2)nc(-c2cccc(/C=C/C(=O)NO)c2)n1[C@@H]1CCCN(C(C)C)C1 , and I need its recorded EC50.
40

I have this compound here, Cc1nc(-c2cccc(/C=C/C(=O)NO)c2)n(CCc2ccccc2)c1-c1ccccc1 , and I need its recorded EC50.
300

I have this compound here, O=C(/C=C/c1cccc(-c2nc3ccccc3n2[C@@H]2CCCNC2)c1)NO , and I need its recorded EC50.
100

I have this compound here, O=C(/C=C/c1cccc(-c2nc3ccccc3n2CCN2CCCC2)c1)NO , and I need its recorded EC50.
500

I have this compound here, C[C@H](c1ccccc1)n1c(-c2cccc(/C=C/C(=O)NO)c2)nc2ccccc21 , and I need its recorded EC50.
3100

I have this compound here, O=C(/C=C/c1cccc(-c2nc3ccccc3n2C2CCCNC2)c1)NO (racemic) , and I need its recorded EC50.
300

I have this compound here, Cc1c(Cc2ccccc2)nc(-c2cccc(/C=C/C(=O)NO)c2)n1CCN1CCOCC1 , and I need its recorded EC50.
300

I have this compound here, CN(C)CCn1c(-c2cccc(/C=C/C(=O)NO)c2)nc2ccccc21 , and I need its recorded EC50.
1000

---

Provide the recorded log10(IC50) for the entries that follow.
- tested.target: UniProt Q9UBN7
- Sequence (Q9UBN7 whole entry): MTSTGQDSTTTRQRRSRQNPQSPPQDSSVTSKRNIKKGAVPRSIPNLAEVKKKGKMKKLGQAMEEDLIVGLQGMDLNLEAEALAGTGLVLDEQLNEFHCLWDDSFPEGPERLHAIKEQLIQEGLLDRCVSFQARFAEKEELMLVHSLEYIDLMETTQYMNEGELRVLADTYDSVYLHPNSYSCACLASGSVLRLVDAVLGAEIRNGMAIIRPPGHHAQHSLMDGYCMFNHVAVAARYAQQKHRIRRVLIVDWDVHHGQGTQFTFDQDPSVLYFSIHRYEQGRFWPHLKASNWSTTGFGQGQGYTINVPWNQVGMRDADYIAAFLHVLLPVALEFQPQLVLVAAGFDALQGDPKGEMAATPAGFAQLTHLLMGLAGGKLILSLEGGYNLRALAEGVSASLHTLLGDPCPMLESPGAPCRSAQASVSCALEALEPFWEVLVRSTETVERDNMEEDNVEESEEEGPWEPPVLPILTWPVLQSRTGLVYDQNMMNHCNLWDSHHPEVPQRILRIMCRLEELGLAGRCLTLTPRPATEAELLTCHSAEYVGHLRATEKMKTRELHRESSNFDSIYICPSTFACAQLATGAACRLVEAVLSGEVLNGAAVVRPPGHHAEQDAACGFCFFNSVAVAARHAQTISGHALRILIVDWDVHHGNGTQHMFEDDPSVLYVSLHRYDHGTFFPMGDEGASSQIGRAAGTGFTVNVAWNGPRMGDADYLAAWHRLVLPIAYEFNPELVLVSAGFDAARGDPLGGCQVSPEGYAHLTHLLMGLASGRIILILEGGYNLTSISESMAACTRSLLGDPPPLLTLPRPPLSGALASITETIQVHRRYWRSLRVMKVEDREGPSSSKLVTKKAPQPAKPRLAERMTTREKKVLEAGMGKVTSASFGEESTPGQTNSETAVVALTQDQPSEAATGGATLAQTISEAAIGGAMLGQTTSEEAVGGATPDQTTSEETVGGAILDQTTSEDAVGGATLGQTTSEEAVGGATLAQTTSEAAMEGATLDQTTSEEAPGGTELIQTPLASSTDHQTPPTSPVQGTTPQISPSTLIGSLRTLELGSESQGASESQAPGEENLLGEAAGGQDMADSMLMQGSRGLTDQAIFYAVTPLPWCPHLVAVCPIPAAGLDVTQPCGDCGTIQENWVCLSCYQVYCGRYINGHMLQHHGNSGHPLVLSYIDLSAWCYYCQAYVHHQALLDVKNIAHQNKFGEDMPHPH
- protocol: Inhibition of human recombinant HDAC6
Could you please treat all values as log10 of IC50 in nM?

I have this compound here, CN1CCC[C@@H](n2c(-c3cccc(/C=C/C(=O)NO)c3)nc3ccccc32)C1 , and I need its recorded log10(IC50).
2.00

I have this compound here, Cc1nc(-c2cccc(/C=C/C(=O)NO)c2)n(CCN2CCOCC2)c1Cc1ccccc1 , and I need its recorded log10(IC50).
1.90

I have this compound here, O=C(/C=C/c1cccc(-c2nc3ccccc3n2[C@H]2CCCNC2)c1)NO , and I need its recorded log10(IC50).
1.40

I have this compound here, O=C(/C=C/c1cccc(-c2nc3ccccc3n2C2CCCCC2)c1)NO , and I need its recorded log10(IC50).
1.40

I have this compound here, CCN(CC)CCn1c(-c2cccc(/C=C/C(=O)NO)c2)nc2ccccc21 , and I need its recorded log10(IC50).
1.90

I have this compound here, Cc1nc(-c2cccc(/C=C/C(=O)NO)c2)n([C@@H]2CCCN(C)C2)c1-c1ccccc1 , and I need its recorded log10(IC50).
1.90

I have this compound here, CCN1CCC[C@@H](n2c(-c3cccc(/C=C/C(=O)NO)c3)nc(-c3ccccc3)c2C)C1 , and I need its recorded log10(IC50).
2.00

I have this compound here, Cc1c(-c2ccccc2)nc(-c2cccc(/C=C/C(=O)NO)c2)n1CCc1ccccc1 , and I need its recorded log10(IC50).
1.80

I have this compound here, CC(C)N(CCn1c(-c2cccc(/C=C/C(=O)NO)c2)nc2ccccc21)C(C)C , and I need its recorded log10(IC50).
2.00

I have this compound here, C[C@@H](c1ccccc1)n1c(-c2cccc(/C=C/C(=O)NO)c2)nc2ccccc21 , and I need its recorded log10(IC50).
1.80

I have this compound here, CCN1CCC[C@H](n2c(-c3cccc(/C=C/C(=O)NO)c3)nc3ccccc32)C1 , and I need its recorded log10(IC50).
1.90

I have this compound here, Cc1nc(-c2cccc(/C=C/C(=O)NO)c2)n(CCc2ccccc2)c1-c1ccccc1 , and I need its recorded log10(IC50).
1.90

I have this compound here, CCN1CCC[C@@H](n2c(-c3cccc(/C=C/C(=O)NO)c3)nc3ccccc32)C1 , and I need its recorded log10(IC50).
1.90

I have this compound here, CCN1CCC[C@@H](n2c(C)nc(C)c2-c2cccc(/C=C/C(=O)NO)c2)C1 , and I need its recorded log10(IC50).
2.60

I have this compound here, C[C@H](c1ccccc1)n1c(-c2cccc(/C=C/C(=O)NO)c2)nc2ccccc21 , and I need its recorded log10(IC50).
1.60

I have this compound here, Cc1nc(-c2ccccc2)n(CCc2ccccc2)c1-c1cccc(/C=C/C(=O)NO)c1 , and I need its recorded log10(IC50).
1.90

I have this compound here, CN1CCCC(n2c(-c3cccc(/C=C/C(=O)NO)c3)nc3ccccc32)C1 (racemic) , and I need its recorded log10(IC50).
1.90

I have this compound here, Cc1c(-c2ccccc2)nc(-c2cccc(/C=C/C(=O)NO)c2)n1[C@@H]1CCCN(C(C)C)C1 , and I need its recorded log10(IC50).
1.90

I have this compound here, CC(C)n1c(-c2cccc(/C=C/C(=O)NO)c2)nc2ccccc21 , and I need its recorded log10(IC50).
2.00

I have this compound here, Cc1c(-c2ccccc2)nc(-c2cccc(/C=C/C(=O)NO)c2)n1CCN1CCOCC1 , and I need its recorded log10(IC50).
1.80
